# residual activity values compiled below
assay_system: CAMK4 (human) (UniProt Q16566)
Sequence (Q16566 whole entry, looked up): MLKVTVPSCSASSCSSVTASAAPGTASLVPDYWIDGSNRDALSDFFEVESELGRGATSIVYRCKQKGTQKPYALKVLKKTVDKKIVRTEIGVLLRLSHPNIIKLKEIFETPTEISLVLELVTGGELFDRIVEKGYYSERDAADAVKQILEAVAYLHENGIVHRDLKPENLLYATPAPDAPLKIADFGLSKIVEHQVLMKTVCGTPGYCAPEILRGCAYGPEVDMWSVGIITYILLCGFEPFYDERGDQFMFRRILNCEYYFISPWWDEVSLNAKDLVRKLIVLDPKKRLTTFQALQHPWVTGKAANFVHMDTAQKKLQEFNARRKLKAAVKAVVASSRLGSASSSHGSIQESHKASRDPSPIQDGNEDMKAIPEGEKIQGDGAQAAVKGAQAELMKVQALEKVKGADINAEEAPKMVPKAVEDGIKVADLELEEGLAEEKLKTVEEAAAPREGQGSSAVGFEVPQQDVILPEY
test_protocol: radiometric filter-binding kinase assay, Kinase HotSpot
particulars: compound 0.5 µM; ATP 10 µM

- molecule: "CC[n+]1c(/C=C/N(C)c2ccccc2)n(-c2ccccc2)c2ccc(-c3nc4ccccc4s3)cc21"
  units_of_measure: "%"
  residual activity: 93.2
- molecule: "CC(=O)c1ccc(N2CCOCC2)cc1O"
  units_of_measure: "%"
  residual activity: 93
- molecule: "Nc1ccc2ncnc(NCCc3ccc(Oc4ccccc4)cc3)c2c1"
  units_of_measure: "%"
  residual activity: 98.9
- molecule: "CNC(=O)c1cc(Oc2ccc(NC(=O)Nc3ccc(Cl)c(C(F)(F)F)c3)cc2)ccn1"
  units_of_measure: "%"
  residual activity: 107
- molecule: "Cc1ccc(Nc2nccc(N(C)c3ccc4c(C)n(C)nc4c3)n2)cc1S(N)(=O)=O"
  units_of_measure: "%"
  residual activity: 95.9
- molecule: "COc1ccc2c(c[n+](C)c3c4cc5c(cc4ccc23)OCO5)c1OC"
  units_of_measure: "%"
  residual activity: 99.9
- molecule: "CO[C@H]1CC2CC[C@@H](C)[C@@](O)(O2)C(=O)C(=O)N2CCCC[C@H]2C(=O)OC([C@H](C)C[C@@H]2CC[C@@H](O)[C@H](OC)C2)CC(=O)[C@H](C)/C=C(\\C)[C@@H](O)[C@@H](OC)C(=O)[C@H](C)C[C@H](C)/C=C/C=C/C=C/1C (stereo partly drawn)"
  units_of_measure: "%"
  residual activity: 99.1
- molecule: "CCN(CC)C(=O)c1ccc(Nc2nc(OCC3CCCCC3)c3nc[nH]c3n2)cc1"
  units_of_measure: "%"
  residual activity: 97.7
